Biological target: Dual specificity protein phosphatase 6 (Homo sapiens, UniProt Q16828)
Sequence (Q16828 whole entry): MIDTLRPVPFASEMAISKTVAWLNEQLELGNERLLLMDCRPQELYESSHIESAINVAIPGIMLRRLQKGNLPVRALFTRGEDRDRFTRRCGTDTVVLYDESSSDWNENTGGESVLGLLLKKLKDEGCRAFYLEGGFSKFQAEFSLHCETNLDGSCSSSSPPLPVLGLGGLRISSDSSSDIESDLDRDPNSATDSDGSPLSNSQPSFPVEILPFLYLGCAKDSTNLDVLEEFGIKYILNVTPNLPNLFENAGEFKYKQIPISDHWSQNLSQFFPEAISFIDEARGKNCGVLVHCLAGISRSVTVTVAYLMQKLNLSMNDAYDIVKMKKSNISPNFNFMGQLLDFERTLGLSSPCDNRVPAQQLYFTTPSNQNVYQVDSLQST
Test: Inhibition of MKP3 using 3-O-Methylfluorescein phosphate as substrate incubated for 10 mins prior to substrate addition by fluorometry
pIC50: −log10 of the molar value.
Below, each entry is listed alongside its reported pIC50.

>>> df
                               smiles_input                           target_of_assay  value_measured
0  O=C(O)/C=C/c1ccc[c]([Sb](=[O])([OH])[OH])c1  Dual specificity protein phosphatase 6 (Homo sapiens, UniProt Q16828)          < 5.00

Attention now shifts to the item below.
pIC50 reading for O=C(O)CCc1ccc[c]([Sb](=[O])([OH])[OH])c1 : < 4.00

---

Target: UniProt P30305
Sequence (P30305 whole entry): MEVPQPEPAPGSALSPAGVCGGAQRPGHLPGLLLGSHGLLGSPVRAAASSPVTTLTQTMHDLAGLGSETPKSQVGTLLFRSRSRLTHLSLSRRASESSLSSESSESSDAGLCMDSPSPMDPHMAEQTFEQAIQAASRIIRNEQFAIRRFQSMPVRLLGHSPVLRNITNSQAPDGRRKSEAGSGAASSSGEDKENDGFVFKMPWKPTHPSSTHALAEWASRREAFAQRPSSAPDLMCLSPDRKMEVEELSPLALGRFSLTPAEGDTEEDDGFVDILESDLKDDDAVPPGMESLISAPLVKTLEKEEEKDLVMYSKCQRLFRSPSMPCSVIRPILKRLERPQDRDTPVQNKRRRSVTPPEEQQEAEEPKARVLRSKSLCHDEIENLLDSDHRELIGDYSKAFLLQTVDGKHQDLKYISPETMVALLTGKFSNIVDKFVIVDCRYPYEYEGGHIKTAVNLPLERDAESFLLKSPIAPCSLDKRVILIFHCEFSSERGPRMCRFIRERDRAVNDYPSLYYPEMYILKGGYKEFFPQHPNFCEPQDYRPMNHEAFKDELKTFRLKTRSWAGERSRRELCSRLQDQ
Property label: IC50 (µM)
# output: bare number, implied unit µM

In [3]: df
Out[3]:
                               smiles_input  target_of_assay  value_measured
0  O=C(O)/C=C/c1ccc[c]([Sb](=[O])([OH])[OH])c1   UniProt P30305             0.6

Attention now shifts to the item below.
The value of IC50 recorded for O=C(O)CCc1ccc[c]([Sb](=[O])([OH])[OH])c1 when tested on UniProt P30305 reads 5.67

---

Below, each entry is listed alongside its reported Ki.
Molecular target: M-phase inducer phosphatase 1 (Homo sapiens, UniProt P30304)
Sequence (P30304 whole entry): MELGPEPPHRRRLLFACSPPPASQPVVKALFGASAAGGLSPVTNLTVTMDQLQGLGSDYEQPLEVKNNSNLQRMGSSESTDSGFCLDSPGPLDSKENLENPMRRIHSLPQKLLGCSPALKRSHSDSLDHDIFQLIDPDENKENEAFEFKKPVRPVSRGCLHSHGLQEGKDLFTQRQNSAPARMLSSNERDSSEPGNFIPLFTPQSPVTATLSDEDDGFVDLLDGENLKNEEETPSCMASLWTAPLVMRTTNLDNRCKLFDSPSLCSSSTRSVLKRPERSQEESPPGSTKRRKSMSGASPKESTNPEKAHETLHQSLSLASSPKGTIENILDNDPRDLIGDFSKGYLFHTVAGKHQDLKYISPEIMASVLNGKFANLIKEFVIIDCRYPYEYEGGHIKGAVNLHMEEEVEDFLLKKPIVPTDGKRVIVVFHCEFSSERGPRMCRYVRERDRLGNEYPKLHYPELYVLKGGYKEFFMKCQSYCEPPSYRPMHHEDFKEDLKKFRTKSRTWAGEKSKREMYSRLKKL
Experiment: Inhibition of N-terminal His-tagged Cdc25a catalytic domain expressed in Escherichia coli BL21(DE3) using 3-O-Methylfluorescein phosphate as substrate by secondary plot analysis
# output: bare number, implied unit µM

In [3]: df
Out[3]:
                               smiles_input  value_measured
0  O=C(O)CCc1ccc[c]([Sb](=[O])([OH])[OH])c1             1.7

Attention now shifts to the item below.
Ki reading for O=C(O)/C=C/c1ccc[c]([Sb](=[O])([OH])[OH])c1 : 0.072
